Each entry below carries its reported composite z-score.
Method Description: small-molecule microarray binders of probe aWnt5a, primary screen, biochemical, biotinylated probe, 635/667 nm fluorescence (AID 1113);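 further: score merges 667 nm fluorescence intensity with signal-to-noise per printed feature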
Condition Label: higher = more signal

Example entries and their recorded answers appear below.
[
  {
    "Molecule": "C=C(CCCC)C(=O)CC[C@@H](OC(=O)c1ccccc1-c1ccccc1C(=O)O)c1cccc(OCCO)c1",
    "Test Readout": "composite z-score",
    "Result Value": -0.148
  },
  {
    "Molecule": "CO[C@H]1O[C@H](CO)[C@@H](OC(=O)c2ccc(Br)cc2)[C@@H]2OC(=O)[C@@H](Cc3ccc4ccccc4c3)C/C=C/C[C@H](Cc3ccc4ccccc4c3)C(=O)O[C@@H]12",
    "Test Readout": "composite z-score",
    "Result Value": -0.0894
  }
]

Prompt: Quickly give me recorded composite z-score for COCCOC(=O)N1C(=O)[C@@]2(c3cc(C#CC4(O)CCCCCC4)ccc31)[C@H](C(=O)N1CCCCCCC1)[C@H]1C(=O)O[C@H](c3ccccc3)[C@H](c3ccccc3)N1[C@@H]2c1ccc(OCCO)cc1
Response: 1.12

Prompt: Provide one value: measured composite z-score of C=C(/C(=C/C[C@@H](OC(=O)c1ccncc1)c1ccccc1OCCO)c1cc(C(=O)OC)ccc1OC)C(C)C
Response: -0.012

Prompt: Indicate its recorded composite z-score; the molecule in question is COCCOC(=O)N1C(=O)[C@@]2(c3cc(C#CC4=CCCCC4)ccc31)[C@H](c1ccccc1OCCO)N1[C@H](c3ccccc3)[C@H](c3ccccc3)OC(=O)[C@H]1[C@@H]2C(=O)N1CCc2cc(OC)c(OC)cc2C1
Response: -0.121

Prompt: State, in one line, measured composite z-score of CCCCC(CC)C(O)C1C=CC2C(=O)N(c3ccccc3)C(=O)C2N1Nc1ccc([N+](=O)[O-])cc1 (stereo not drawn)
Response: -0.0519

Prompt: Report composite z-score, nothing else, for this molecule: COC(=O)[C@@]1(Cc2ccc(OC)cc2)[C@H]2c3cc(C(=O)N(C)C)n(Cc4nc5ccccc5[nH]4)c3C[C@H]2CN1C(=O)c1ccccc1
Response: 0.343

Prompt: Fill in reported composite z-score for this entry: CCCC[C@@H]1C[C@H]1[C@@H](NC(=O)c1cccnc1)c1ccc(-c2ccccc2)cc1
Response: -0.141

Prompt: Using the record for CC(C)NC(=O)[C@@]1(C)c2ccccc2C(=O)N(C(C)C)[C@H]1c1ccc(CO)cc1 , state its measured composite z-score.
Response: -0.296

Prompt: State its composite z-score for this molecule: Cc1ccc(S[C@]2(C(=O)NC(C)C)CC(=O)N(C3Cc4ccccc4C3)[C@@H]2c2ccc(CO)cc2I)cc1
Response: -0.596

Prompt: Hello, please tell me recorded composite z-score for this one: CCCC[C@@H]1C[C@H]1[C@@H](NC(=O)c1ccccc1)c1ccc(Cl)cc1
Response: -0.247

Prompt: Note down composite z-score recorded for C[C@H]1ON(c2ccc(C(=O)OC(C)(C)C)cc2)[C@@H](c2ccc(O)cc2)[C@@H]1C(=O)N1C(=O)OC[C@@H]1c1ccccc1
Response: -0.0977

Prompt: Look up and state reported composite z-score for Cc1ccc(S[C@]2(C(=O)NCC(C)C)CC(=O)N(Cc3ccccc3Cl)[C@@H]2c2ccc(CO)cc2I)cc1
Response: 0.31
